Catalogue of Migration rate (%) (mean ± SD, P) values
- Tested on: human lung squamous carcinoma cells (NCI-H226)
- Measurement description: scratch assay, migration of NCI-H226 cells
- Format: cell-based
- Condition set: NCI-H226, 10 μM, 48 hours; control group 65.31 ± 3.19
Ends that are not written are not given here. PEG = not defined here

- Substance: "N48: SEQ ID NO: 1 with A7R, deletion of position 11 and position 18, PEG modification at the carboxyl terminal (YRVRFLRKENTQDAED-{PEG}; reading uncertain)"
  Migration rate (%) (mean ± SD, P): "25.07 ± 4.31,*** %"
- Substance: "N30: SEQ ID NO: 1 with deletion of positions 1-5 and 15-18 and PEG modification at the carboxyl terminal (LAKENVTQD-{PEG}; reading uncertain)"
  Migration rate (%) (mean ± SD, P): "13.91 ± 7.36,*** %"
- Substance: "N23: SEQ ID NO: 1 with substitution A7R, deletion of position 11 and of positions 15-18 (YRVRFLRKENTQDAED)"
  Migration rate (%) (mean ± SD, P): "13.24 ± 8.19,*** %"
- Substance: "N19: SEQ ID NO: 1 with deletion of positions 1-5 and 15-18 and addition of two amino acids at the carboxyl terminal (LAKENVTQDRC)"
  Migration rate (%) (mean ± SD, P): "16.80 ± 8.02,*** %"

GET /values?readout=Migration rate (%) (mean ± SD, P)&item= N1: polypeptide with the amino acid sequence set forth in SEQ ID NO: 1 (YRVRFLAKENVTQDAEDN)
12.68 ± 9.07,*** %
